- target.of.assay: human Y4 receptor (human, UniProt P50391 1-375)
- Sequence (P50391 whole entry): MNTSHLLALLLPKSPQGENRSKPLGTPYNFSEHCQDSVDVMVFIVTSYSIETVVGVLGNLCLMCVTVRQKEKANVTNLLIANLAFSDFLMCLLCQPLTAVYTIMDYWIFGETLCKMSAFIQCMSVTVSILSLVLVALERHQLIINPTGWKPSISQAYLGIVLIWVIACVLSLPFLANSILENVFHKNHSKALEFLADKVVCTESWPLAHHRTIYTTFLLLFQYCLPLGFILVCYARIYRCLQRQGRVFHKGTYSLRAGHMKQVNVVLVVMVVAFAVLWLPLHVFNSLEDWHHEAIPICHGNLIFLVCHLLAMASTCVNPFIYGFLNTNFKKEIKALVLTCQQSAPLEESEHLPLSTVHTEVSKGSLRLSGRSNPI
- assay.overview: 125I-PP displacement
No end group written: not given here.
Measured IC50, listed per entry for reference.

binder	IC50
APLEPVYPGDNATPEQMAQYAAALRRYINMLTRPRY [compound of SEQ ID NO:277 (Ala 23, code 4055747)]	0.079 nM
APLEPFYPGDNATPEQMAQYAADLRRYINMLTRPRY (ends and bridges not checked) [compound of SEQ ID NO:275 (code 4055745)]	0.17 nM
APLEPVYPGDNATPEQMAQYAADLRRYINFLTRPRY (ends and bridges not checked) [compound of SEQ ID NO:261 (code 4055715)]	0.13 nM

Every entry's value here was drawn from patent US20100279930A1.
